# Test system: MDA-MB-231
# experimental.details: Cytotoxicity against human MDA-MB-231 cells assessed as viable cells at 5 uM after 72 hrs by MTT assay in absence of serum relative to control
# Type: functional
# condition.details: MDA-MB-231, 72 h, read-out: Activity
Give viability at 5 µM for every item shown.

query: Determine from records and report viability at 5 µM for CC1(C)CC(NCc2ccccc2)=Nc2ccc(Cl)cc21
result: 68.1%

query: Determine from records and report viability at 5 µM for CC1(C)CC(NCCCCO)=Nc2ccc(Cl)cc21
result: 84.8%

query: Determine from records and report viability at 5 µM for CCNC1=Nc2ccc(Cl)cc2C(C)(C)C1
result: 85.1%

* * *

Give viability at 5 µM for every item shown.
# Tested on: MDA-MB-231
# experimental.details: Cytotoxicity against human MDA-MB-231 cells assessed as viable cells at 5 uM after 72 hrs by MTT assay in absence of serum relative to control
# Type: functional
# condition.details: MDA-MB-231, 72 h, read-out: Activity

query: Determine from records and report viability at 5 µM for CN(C)CCCNC1=Nc2cccc(Cl)c2C(C)(C)C1
result: 43.9%

query: Determine from records and report viability at 5 µM for CCCNC1=Nc2ccc(Cl)cc2C(C)(C)C1
result: 82.4%

query: Determine from records and report viability at 5 µM for CN(C)CCCNC1=Nc2ccc(Cl)cc2C(C)(C)C1
result: 38%

query: Determine from records and report viability at 5 µM for NC1=Nc2ccccc2C(c2ccccc2)C1 (configuration not stated)
result: 86.3%

query: Determine from records and report viability at 5 µM for CCN(CC)CCCNC1=Nc2ccc(Cl)cc2C(C)(C)C1
result: 36.1%

query: Determine from records and report viability at 5 µM for CN(C)CCNC1=Nc2ccc(Cl)cc2C(C)(C)C1
result: 50.8%

query: Determine from records and report viability at 5 µM for CC1(C)CC(=O)Nc2ccc(Cl)cc21
result: 81.7%
